- Test system: DERL-7 (IL-2 2.5 ng/mL);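 further: normalised to DMSO-only wells as negative and benzethonium chloride as positive control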
- assay_summary: percent inhibition of viability; higher = more inhibition
- recorded_conditions: 72 h; 1 nM
measurement_type: percent inhibition of viability (%)
Kindly provide the numeric value in % only, without the unit symbol.

Form: molecule = Cc1ccc(NC(=O)c2ccc(CN3CCN(C)CC3)cc2)cc1Nc1nccc(-c2cccnc2)n1 [Imatinib] (max concentration tested 10000 nM) ; percent inhibition of viability = 0.4

Form: molecule = O=C(NOCC1CC1)c1ccc(F)c(F)c1Nc1ccc(I)cc1Cl (max concentration tested 10000 nM) ; percent inhibition of viability = 2.61

Form: molecule = Cc1c(C(=O)Nc2ccc(N3C[C@@H](C)O[C@@H](C)C3)nc2)cccc1-c1ccc(OC(F)(F)F)cc1 [Sonidegib] (max concentration tested 10000 nM) ; percent inhibition of viability = -6.39

Form: molecule = CC(=O)[C@]1(O)Cc2c(O)c3c(c(O)c2[C@@H](O[C@H]2C[C@H](N)[C@H](O)[C@H](C)O2)C1)C(=O)c1ccccc1C3=O [Idarubicin] (max concentration tested 1000 nM) ; percent inhibition of viability = 7.69
